System: platelet aggregation in platelet-rich plasma, agonist ADP
experiment: ADP-induced platelet aggregation in platelet-rich plasma (aggregometer)
Format: cell-based, human
experimentalSetup: Homo sapiens, Platelet, Table 4; compounds from sources other than tomatoes; mg per 1 mL PRP; ADP 10 μmol/L
measurementKind: IC50 (mg/mL)

Use these answered entries as a reference point.
# compound, testedSystem, IC50 [mg/mL]
data = [
    ("O=C(O)C=Cc1ccccc1 [Compound 22, Cinnamic acid]", "platelet aggregation in platelet-rich plasma, agonist ADP", 26.1),
    ("COc1cc(/C=C/C(=O)O)cc(OC)c1O [Sinapic acid]", "platelet aggregation in platelet-rich plasma, agonist ADP", 26.1),
    ("Nc1nc2c(ncn2[C@@H]2O[C@H](COP(=O)(O)O)[C@@H](O)[C@H]2O)c(=O)[nH]1 [Guanosine 5′-monophosphate]", "platelet aggregation in platelet-rich plasma, agonist ADP", 0.1),
    ("O=C(O)c1ccc(O)c(O)c1 [Protocatechuic acid]", "platelet aggregation in platelet-rich plasma, agonist ADP", 30.2),
    ("OC[C@H]1O[C@@H](n2cnc3c(O)ncnc32)[C@H](O)[C@@H]1O [Inosine]", "platelet aggregation in platelet-rich plasma, agonist ADP", 3.5),
    ("O=C(O)/C=C/c1ccccc1O [o-Coumaric acid]", "platelet aggregation in platelet-rich plasma, agonist ADP", 32.2),
]

P. O=C(O)c1cc(O)c(O)c(O)c1 [Gallic acid]
Q. COc1cc(C(=O)O)cc(OC)c1O [Syringic acid]
[ask] Compare P and Q and name the one whose reported IC50 is smaller. Please reply using the label of the selected record.
[reply] P
(P: 20.2 mg/mL, Q: 37.2 mg/mL)

====

System: platelet aggregation in platelet-rich plasma, agonist thrombin receptor-activating peptide (TRAP)
experiment: TRAP-induced platelet aggregation in platelet-rich plasma (aggregometer)
Type: cell-based, human
experimentalSetup: Homo sapiens, Platelet, Table 3; mg needed for 50% inhibition in 1 mL PRP; TRAP 25 nmol/L; compounds isolated from tomato extract
measurementKind: IC50 (mg/mL)
Report only the number, with the unit mg/mL understood.

# molecule, IC50 [mg/mL]
records = [
    ("O=C(O)c1ccccc1 [Compound 20, Benzoic acid]", 18.2),
]

--- query ---
[ask] Dear colleague, please send me the reported IC50 for O=C(/C=C/c1ccc(O)c(O)c1)O[C@@H]1C[C@](O)(C(=O)O)C[C@@H](O)[C@H]1O [Compound 14, Chlorogenic acid] when you can.
[reply] 1.1

====

System: platelet aggregation in platelet-rich plasma, agonist thrombin receptor-activating peptide (TRAP)
experiment: TRAP-induced platelet aggregation in platelet-rich plasma (aggregometer)
Type: cell-based, human
experimentalSetup: Homo sapiens, Platelet, Table 4; compounds from sources other than tomatoes; mg per 1 mL PRP; TRAP 25 nmol/L
measurementKind: IC50 (mg/mL)

# compound, unitDescriptor, value
records = [
    ("O=C(O)/C=C/c1ccccc1O [o-Coumaric acid]", "mg/mL", 17.4),
    ("Nc1nc2c(ncn2[C@@H]2O[C@H](COP(=O)(O)O)[C@@H](O)[C@H]2O)c(=O)[nH]1 [Guanosine 5′-monophosphate]", "mg/mL", 20.1),
    ("O=C(O)C=Cc1ccccc1 [Compound 22, Cinnamic acid]", "mg/mL", 18.2),
]

1. O=C(O)c1cc(O)c(O)c(O)c1 [Gallic acid]
2. COc1cc(C(=O)O)cc(OC)c1O [Syringic acid]
[ask] // which entry has the larger IC50 value, 1 or 2 ? Please reply using the label of the selected record.
[reply] 2

I. COc1cc(/C=C/C(=O)O)cc(OC)c1O [Sinapic acid]
II. O=c1c(O)c(-c2cc(O)c(O)c(O)c2)oc2cc(O)cc(O)c12 [Myricetin]
[ask] // which entry has the larger IC50 value, I or II ? Please reply using the label of the selected record.
[reply] I
(I: 30.4 mg/mL, II: 12.9 mg/mL)

====

IC50 values for the molecules below.
Tested on: platelet aggregation in platelet-rich plasma, agonist ADP
experiment: ADP-induced platelet aggregation in platelet-rich plasma (aggregometer)
Format: cell-based, human
experimentalSetup: Homo sapiens, Platelet, Table 4; compounds from sources other than tomatoes; mg per 1 mL PRP; ADP 10 μmol/L

# structureAsSmiles, IC50
measured = [
    ("C[C@@H]1O[C@@H](Oc2c(-c3ccc(O)c(O)c3)oc3cc(O)cc(O)c3c2=O)[C@H](O)[C@H](O)[C@H]1O", "> 50 mg/mL"),
    ("O=c1cc(-c2ccc(O)c(O)c2)oc2cc(O)cc(O)c12", "> 50 mg/mL"),
]

--- query ---
[ask] Dear colleague, please send me the reported IC50 for "O=c1c(O)c(-c2cc(O)c(O)c(O)c2)oc2cc(O)cc(O)c12" when you can.
[reply] 22.1 mg/mL

====

Test system: platelet aggregation in platelet-rich plasma, agonist thrombin receptor-activating peptide (TRAP)
experiment: TRAP-induced platelet aggregation in platelet-rich plasma (aggregometer)
Assay type: cell-based, human
experimentalSetup: Homo sapiens, Platelet, Table 4; compounds from sources other than tomatoes; mg per 1 mL PRP; TRAP 25 nmol/L
measurementKind: IC50 (mg/mL)
Report only the number, with the unit mg/mL understood.

# molecule, measurementKind, value
measured = [
    ("O=C(O)c1ccc(O)c(O)c1 [Protocatechuic acid]", "IC50", 30.8),
]

[ask] Dear colleague, please send me the reported IC50 for C[C@@H]1O[C@@H](Oc2c(-c3ccc(O)c(O)c3)oc3cc(O)cc(O)c3c2=O)[C@H](O)[C@H](O)[C@H]1O [Quercitrin] when you can.
[reply] 16

[ask] Dear colleague, please send me the reported IC50 for O=c1cc(-c2ccc(O)c(O)c2)oc2cc(O)cc(O)c12 [Luteolin] when you can.
[reply] 26.2
